assay: endothelial E-selectin expression blockers – imaging, HUVEC, immunofluorescence, MLSMR starter and 10KST1 sets, primary screen (AID 487); details: HUVEC TNFalpha-induced E-selectin immunofluorescence imaging, at 2 µM; stronger effect = higher value;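 on inhibition: signal is fraction of cell area covered by stained E-selectin grains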
Active and inactive are the calls of the source.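 How the source made its calls: active means visually confirmed hit in the image check and inhibition above 20%; inconclusive means visually confirmed hit but inhibition not above 20%; inactive means no visual hit in the image check.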
Would you kindly list inhibition for each of these molecules?

Known inhibition results, listed for orientation:
COc1cc(NC(=O)c2cc(OC)c(OC)c(OC)c2)c(OC)cc1NC(=O)CN1CCCCC1
-14.6% (inactive)
Cc1cc(NC(=O)c2ccccc2Oc2ccccc2)no1
23.9% (inactive)

Could I get inhibition for every one of these entries?
1. CC1(C)O[C@@H]2C[C@H]3[C@@H]4CCC5=CC(=O)C=C[C@]5(C)[C@@]4(F)[C@@H](O)C[C@]3(C)[C@]2(C(=O)CO)O1
2. CCn1cc(C(=O)N2CCN(C(=O)c3ccco3)CC2)c2cc(OC)c(OC)cc2c1=O
3. Cc1ccccc1OCCN1C(=O)NC2(CCc3ccccc32)C1=O (stereo not given)

Out:
1. -115% (inactive)
2. -55.5% (inactive)
3. 8.5% (inactive)

====

molecular target: Muscarinic acetylcholine receptor M4 (Homo sapiens) (UniProt P08173); assay: M4-linked GIRK flux change, two-sided – cell-based, HEK293 M4/GIRK, thallium flux, BTC-AM, M4 allosteric agonist project, primary screen (AID 625); settings: at 10 µM, actives lie on both sides;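 further: thallium influx through GIRK channels coupled to M4 in HEK293 cells with BTC-AM dye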
Sequence (P08173 whole entry, looked up): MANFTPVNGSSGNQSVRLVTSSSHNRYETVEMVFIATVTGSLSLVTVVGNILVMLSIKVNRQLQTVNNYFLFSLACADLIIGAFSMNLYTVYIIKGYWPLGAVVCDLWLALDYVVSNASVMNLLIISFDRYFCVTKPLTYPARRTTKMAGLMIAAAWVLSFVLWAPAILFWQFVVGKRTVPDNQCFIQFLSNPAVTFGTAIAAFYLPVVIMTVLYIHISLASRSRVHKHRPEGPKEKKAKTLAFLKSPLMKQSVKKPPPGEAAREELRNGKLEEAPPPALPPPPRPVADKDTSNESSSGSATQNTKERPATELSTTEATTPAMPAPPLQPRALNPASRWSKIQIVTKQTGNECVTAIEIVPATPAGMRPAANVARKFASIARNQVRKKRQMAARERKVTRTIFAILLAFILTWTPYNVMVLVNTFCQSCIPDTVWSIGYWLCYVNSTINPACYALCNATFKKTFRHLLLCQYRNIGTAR
Would you mind telling me the reported fluorescence slope of each entry?
Numbers only.

Record fluorescence slope per entry; entries follow.
1. COc1ccc(C(=O)NCC(=O)n2nc(C)cc2C)cc1OC
2. CCSCCC(NC1=CC(=O)CC(C)(C)C1)C(=O)O (configuration not stated)
3. Cn1c(=O)c(NC(=O)c2ccccc2)c2n(c1=S)CCCCC2
4. COc1ccccc1CNC(=O)CCn1c(=O)[nH]c2ccsc2c1=O
5. O=C(COc1ccccc1Cl)OCC(=O)N1CCN(S(=O)(=O)c2ccccc2)CC1
6. CCOC(=O)c1sc(N2C(=O)C(O)=C(C(=O)c3ccco3)C2c2ccccc2)nc1C (configuration not stated)

Out:
0.00491
0.00496
0.00647
0.0062
0.00565
0.00663

In: Notebook: pull reported fluorescence slope for Muscarinic acetylcholine receptor M4 (Homo sapiens) (UniProt P08173), entry O=C(CN1C(=O)COc2ccccc21)NCCCN1CCN(Cc2ccccc2)CC1
Out: 0.00512

====

For each of the compounds below, state its inhibition.
assay: inhibitors of TNFa-induced NFkB p65 translocation, primary screen, imaging, HUVEC, MLSMR starter and 10KST1 sets (AID 438); settings: HUVEC TNFa-induced p65 nuclear translocation; at 2 µM, stronger effect = higher value, 0% TNFa-plus-vehicle, 100% no-TNFa wells;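 further: compound added about 3h40 before a 20 min TNFalpha stimulation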;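 on inhibition: signal is the nuclear over cytoplasmic p65 intensity ratio per well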
One number for each entry, in %.

Previously resolved entries follow.
S=c1[nH]nc(COc2ccccc2)n1C1CCCCC1
8
Cc1cccc(-c2noc(CCC(=O)Nc3ccccc3)n2)c1
9.5

Below are some compounds; for each one, tell me its inhibition.
1. CCNC(=O)COc1ccc(Br)cc1Cl
2. O=C(C1CCN(S(=O)(=O)c2ccc(-n3cnnn3)cc2)CC1)N1CCN(c2ccccc2)CC1

Out:
1: 0; 2: 4.2

For every item in the list below, what is its measured inhibition?
1. C/C(Cl)=C\Cn1c(NCCc2ccccc2)nc2c1c(=O)n(C)c(=O)n2C
2. Cc1ccc(S(=O)(=O)c2nc(-c3ccco3)oc2SCC(=O)NCC2CCCO2)cc1 (stereo not given)

Out:
1: -7.8; 2: -8

Hello, I would appreciate it if you could give inhibition for each entry below.
1. Cc1ccccc1CN1CCN(CC(=O)NCc2ccco2)C1=O
2. CCn1c(CC(=O)Nc2cccc(OC)c2)nnc1SCC(=O)Nc1nccs1
3. CC(C)OC(=O)CSc1nnnn1-c1ccc2c(c1)OCCO2
4. COc1ccc(Cl)cc1NC(=O)COc1cccc(-n2cnnn2)c1
5. CN(Cc1nc(-c2ccncc2)no1)S(=O)(=O)c1ccc(Br)cc1
6. CCOc1ccccc1N1CCN(c2nc(N)c(C#N)c(CC#N)c2C#N)CC1

Out:
1: -1.7; 2: 4.3; 3: -9.9; 4: 1.2; 5: -9.3; 6: -1.7

====

test: inhibitors of TNFa-induced NFkB p65 translocation, primary screen, imaging, HUVEC, MLSMR starter and 10KST1 sets (AID 438); conditions: HUVEC TNFa-induced p65 nuclear translocation; measured here: nuclei count (cytotoxicity indicator), at 2.08 µM;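 further: compound added about 3h40 before a 20 min TNFalpha stimulation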
What cell count was measured for each of the following?
Answers are plain numbers.

// below: answered compounds
O=C(COC(=O)c1ccc(NS(=O)(=O)c2ccc3c(c2)OCCO3)cc1)NCC1CCCO1 (configuration not stated)
424
O=C(NC1CC2CCC1C2)c1ccc(CN2CCOCC2)cc1 (configuration not stated)
362
COc1ccc(-c2cc(C(F)(F)F)nc(SCCC(=O)N3CCOCC3)n2)cc1
506
CC(=O)OC(C(=O)NCc1ccco1)c1cccnc1 (configuration not stated)
609
COC(=O)c1[nH]c(C)c(/C(O)=C2\C(=O)C(=O)N(CCCN3CCOCC3)C2c2ccccn2)c1C (configuration not stated)
814
COc1ccc(NC(=O)CCNC(=O)Cn2ccc3ccccc3c2=O)c(OC)c1
707
CCOc1ccc(C(CC(=O)O)NC(=O)c2ccco2)cc1OC (configuration not stated)
562
Cc1nnc(SCCn2c(N3CC(C)CC(C)C3)nc3c2c(=O)n(C)c(=O)n3C)s1 (configuration not stated)
207

Respectfully, I request cell count for each entry included below.
1. CN1CCCN(C(=O)c2cc(=O)[nH]c3ccccc23)c2nc3ccccc3nc21
2. Cc1cc(C(=O)Nc2cc(C)n(Cc3ccc(Cl)cc3)n2)no1
3. COc1ccc(CN(C(=O)c2ccccc2OC)C2CCS(=O)(=O)C2)cc1 (configuration not stated)
4. COc1ccc(CNC(=O)Cn2nc(C(F)(F)F)c3c2CCC3)cc1
5. CCc1ccc2c(CN(CC)Cc3nc4ccccc4c(=O)[nH]3)cc(=O)oc2c1
6. Cc1ccc(C2CC(c3cccc(Br)c3)Nc3nnnn32)cc1 (configuration not stated)

Out:
369
240
452
620
530
460

====

assay: endothelial E-selectin expression blockers – imaging, HUVEC, immunofluorescence, MLSMR starter and 10KST1 sets, primary screen (AID 487); conditions: HUVEC TNFalpha-induced E-selectin immunofluorescence imaging, at 2 µM; measured here: cell number, toxicity;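 on nuclei count: 100% = median nuclei count of all wells on the same plate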
Endpoint name: nuclei count (%)
Answers are plain numbers, in %.

# map each compound to its nuclei count
1. CCn1c(=N)n(CC(O)COc2cccc(C)c2)c2ccccc21 (stereo not given)
2. Cc1ccccc1N(CC(=O)NCC1CCCO1)C(=O)C1(C)CC(=O)N=C2C=CC=CN21 (stereo not given)

Out:
[112, 133]

Go through the list and state nuclei count for each entry.
1. COC(=O)Nc1ccc(C)cc1NC(=O)OC
2. Nc1c(C2=NCCO2)nnn1Cc1ccccc1
3. Nc1nc(-c2ccc(Cl)cc2)cc(C(F)(F)F)n1

Out:
86.5
149
109

====

molecular target: Muscarinic acetylcholine receptor M4 (Homo sapiens) (UniProt P08173); experiment: M4-linked GIRK flux change, two-sided – cell-based, HEK293 M4/GIRK, thallium flux, BTC-AM, M4 allosteric agonist project, primary screen (AID 625); details: at 10 µM, actives lie on both sides;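 further: thallium influx through GIRK channels coupled to M4 in HEK293 cells with BTC-AM dye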
Endpoint name: fluorescence slope
Answers are plain numbers.

A selection of reference data follows.
COc1ccc(-c2nc(N)nc(C)c2Oc2ccccc2Br)c(O)c1
0.00571
Cc1cc(C)c2cc(CN(CC3CCCO3)C(=O)NC3CCCCC3)c(=O)[nH]c2c1 (stereo unspecified)
0.0057
Cc1ccc(S(=O)(=O)N2CCOCC2)cc1C(=O)OCC(=O)N1CCc2ccccc2C1
0.00607
Cc1ccccc1NC(=O)C1CCN(c2cnccn2)CC1
0.00512
COc1ccc(OC)c(CNC(=O)CCN2C(=O)COc3ccccc32)c1
0.00555
O=c1oc2ccccc2n1CCn1c2ccccc2c2nc3ccccc3nc21
0.00487
O=C(N1CCCCCC1)N1CCN(C(=O)N2CCOCC2)CC1
0.00574
Cc1cc(SCC(N)=O)nc(SCC(=O)c2ccccc2)n1
0.00307

Would you mind listing fluorescence slope for each of the following compounds?
1. COc1cccc2cc(C(=O)N3CCN(C45CC6CC(CC(C6)C4)C5)CC3)c(=O)oc12
2. O=C(CSc1nnc2scc(-c3ccccc3)n12)N1CCN(Cc2ccccc2)CC1
3. CCn1c(Cc2ccc(OC)cc2)nnc1SCC(=O)Nc1cccc(C(=O)OC)c1

Out:
1. 0.00456
2. 0.00675
3. 0.00613

====

Would you mind telling me the reported nuclei count of each entry?
test: reduction of polyQ htt aggregates in cells – imaging, exon1htt(103Q)mCFP cells, high-content imaging, primary screen (AID 483); details: exon1htt(103Q)mCFP cell line, aggregate imaging, at 2 µM; measured here: cell count, toxicity;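 further: compound exposure lasted 3 days before fixation; percent of the per-plate median nuclei count of sample wells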
Numbers only, in %.

The following compounds have reported results that may help.
Cc1ccc2cc(CN(CC(C)C)C(=O)C3CCCO3)c(=O)[nH]c2c1 (stereo not drawn)
90
CCOC(=O)C1CCN(c2c(NCCCN(CC)c3ccccc3)c(=O)c2=O)CC1
97.6
c1ccc(CNC2=NCCC2)nc1
65.8

For each listed entry, give its nuclei count.
1. O=C1[C@@H]2C(c3ccccc3Cl)=NO[C@@H]2C(=O)N1Cc1ccccc1
2. C=CCNC(=O)CNS(=O)(=O)c1ccc(F)cc1
3. COC(=O)Cc1c(C)nc2nc(-c3ccco3)[nH]n2c1=O

Out:
1: 90.6; 2: 73.9; 3: 93.6

State the recorded nuclei count for every item in the following list.
1. Cc1nc2cc(NC(=O)N3CC4(C)CC3CC(C)(C)C4)ccc2n1C (stereo not drawn)
2. O=C(O)CCn1c(SCc2ccccc2)nc2ccccc21

Out:
[104, 73.9]
